All values here come from PubChem BioAssay.

- Assay Remarks: suppressors of polyQ aggregation in yeast, 75Q-TubU reporter (AID 1593)
- Condition Notes: Yeast 75Q polyglutamine aggregation reporter
API: label(entry) gives condition met if the entry's score is strictly smaller than 1; on equality or larger values it gives condition not met.

{"columns": ["Compound", "Class Label"],
 "data": [
  ["CN1CC(CNC(=O)OCc2ccccc2)CC2c3cccc4c3c(cn4C)CC21 (configuration not stated)", "condition not met"],
  ["CN1CCc2cc3c(cc2C1O)OCO3 (configuration not stated)", "condition not met"],
  ["CCCCCCCCCCCCCCCC[N+](C)(C)C", "condition met"],
  ["C=CCC1(CC(C)C)C(=O)NC(=O)NC1=O", "condition met"],
  ["CC(=O)OCC1=C(C(=O)O)N2C(=O)[C@@H](NC(=O)CCCC(N)C(=O)O)C2SC1 (some centres not stated)", "condition not met"],
  ["CC(N)C(O)c1ccccc1 (configuration not stated)", "condition not met"],
  ["C[C@]12CCC3C(CC[C@]4(O)C[C@@H](O)CC[C@]34C=O)[C@@]1(O)CCC2C1=CC(=O)OC1 (some centres not stated)", "condition not met"],
  ["C=C(C)[C@@H]1[C@H]2OC(=O)[C@@H]1[C@]1(O)C[C@H]3O[C@]34C(=O)O[C@H]2[C@]14C", "condition not met"],
  ["O=C(O)c1ccccc1-c1c2cc(Br)c(=O)cc-2oc2[c]([Hg])c(O)c(Br)cc12", "condition met"],
  ["CN=C1CN(O)C(c2ccccc2)=c2cc(Cl)ccc2=N1", "condition not met"],
  ["NCCc1ccc(O)cc1", "condition not met"]
]}

====

- Assay Remarks: sensitizers of A549 cells to miR-34 induction, primary screen, imaging, A549 dox-inducible miR-34, nuclei and caspase counts (AID 1347080)
- Condition Notes: A549 miR-34 inducible, Hoechst nuclei count, 48 h; stronger effect = lower value
Below: a set of entries, each annotated with reported fold change.
Quantity: fold change

{"columns": ["Compound", "Test Value"],
 "data": [
  ["O=C(N/N=C/c1ccc([N+](=O)[O-])o1)c1cc([N+](=O)[O-])cc([N+](=O)[O-])c1O", 0.946],
  ["CN1C(=O)COc2c(C(=O)NC3CN4CCC3CC4)cc(Cl)cc21 (stereo not drawn)", 0.858],
  ["NC(N)=Nc1ccc2[nH]c3c(c2c1)C[C@@]1(O)[C@H]2Cc4ccc(O)c5c4[C@@]1(CCN2CC1CC1)[C@H]3O5", 1.08],
  ["c1ccc(Cn2ccnc2)cc1", 1.24],
  ["C=C1C[C@@H]2[C@@H](CC[C@@]3(C)C(=O)CC[C@@H]23)[C@@]2(C)C=CC(=O)C=C12", 1.01],
  ["CC(C)(O)[C@H]1O[C@H]2CC[C@@]3(C)[C@@](O)(CC[C@H]4Cc5c([nH]c6ccccc56)[C@@]43C)C2=CC1=O", 1.09],
  ["CC(C)(c1ccccc1)c1ccc(O)cc1", 0.897],
  ["NC(=O)c1cc(N2CC2)c([N+](=O)[O-])cc1[N+](=O)[O-]", 1.03]
]}

====

- Assay Remarks: sensitizers of A549 cells to miR-34 induction, primary screen, imaging, A549 dox-inducible miR-34, nuclei and caspase counts (AID 1347080)
- Condition Notes: A549 miR-34 inducible, Hoechst nuclei count, 48 h; measured here: total cells without miR-34 induction
Quantity: cell count

{"columns": ["Compound", "Test Value"],
 "data": [
  ["c1cncc(C2=NCCC2)c1", 8620],
  ["CCN1C[C@]2(OC(=O)c3ccccc3NC(C)=O)CCC(OC)[C@]34C1C(C[C@H]23)[C@@]1(O)CC(OC)[C@H]2C[C@H]4[C@]1(O)C2OC (stereo partly drawn)", 7680],
  ["O=S(=O)(CC1CS1)c1ccc(Oc2ccccc2)cc1 (stereo not drawn)", 8600]
]}

====

- Assay Remarks: sensitizers of A549 cells to miR-34 induction, primary screen, imaging, A549 dox-inducible miR-34, nuclei and caspase counts (AID 1347080)
- Condition Notes: A549 miR-34 inducible, Hoechst nuclei count, 48 h; measured here: total cells with miR-34 induction; stronger effect = lower value
Each record here notes measured cell count.
Quantity: cell count

{"columns": ["Compound", "Test Value"],
 "data": [
  ["CN1C2C[C@H](OC(=O)[C@H](CO)c3ccccc3)C[C@H]1[C@@H](O)C2", 8730],
  ["CCCCC(C#N)(Cn1cncn1)c1ccc(Cl)cc1 (stereo not given)", 9220],
  ["Cn1c2c(c3ccccc31)CCNCC2", 8130],
  ["Cc1nnc2n1-c1sc(CCC(=O)N3CCOCC3)cc1C(c1ccccc1Cl)=NC2", 9280],
  ["C1=C2CCCN[C@H]2[C@@H]2C[C@H]1[C@H]1CCCCN1C2", 10000]
]}

====

- System: ATP-dependent translocase ABCB1 (Homo sapiens) (UniProt P08183)
- Sequence (P08183 whole entry, looked up): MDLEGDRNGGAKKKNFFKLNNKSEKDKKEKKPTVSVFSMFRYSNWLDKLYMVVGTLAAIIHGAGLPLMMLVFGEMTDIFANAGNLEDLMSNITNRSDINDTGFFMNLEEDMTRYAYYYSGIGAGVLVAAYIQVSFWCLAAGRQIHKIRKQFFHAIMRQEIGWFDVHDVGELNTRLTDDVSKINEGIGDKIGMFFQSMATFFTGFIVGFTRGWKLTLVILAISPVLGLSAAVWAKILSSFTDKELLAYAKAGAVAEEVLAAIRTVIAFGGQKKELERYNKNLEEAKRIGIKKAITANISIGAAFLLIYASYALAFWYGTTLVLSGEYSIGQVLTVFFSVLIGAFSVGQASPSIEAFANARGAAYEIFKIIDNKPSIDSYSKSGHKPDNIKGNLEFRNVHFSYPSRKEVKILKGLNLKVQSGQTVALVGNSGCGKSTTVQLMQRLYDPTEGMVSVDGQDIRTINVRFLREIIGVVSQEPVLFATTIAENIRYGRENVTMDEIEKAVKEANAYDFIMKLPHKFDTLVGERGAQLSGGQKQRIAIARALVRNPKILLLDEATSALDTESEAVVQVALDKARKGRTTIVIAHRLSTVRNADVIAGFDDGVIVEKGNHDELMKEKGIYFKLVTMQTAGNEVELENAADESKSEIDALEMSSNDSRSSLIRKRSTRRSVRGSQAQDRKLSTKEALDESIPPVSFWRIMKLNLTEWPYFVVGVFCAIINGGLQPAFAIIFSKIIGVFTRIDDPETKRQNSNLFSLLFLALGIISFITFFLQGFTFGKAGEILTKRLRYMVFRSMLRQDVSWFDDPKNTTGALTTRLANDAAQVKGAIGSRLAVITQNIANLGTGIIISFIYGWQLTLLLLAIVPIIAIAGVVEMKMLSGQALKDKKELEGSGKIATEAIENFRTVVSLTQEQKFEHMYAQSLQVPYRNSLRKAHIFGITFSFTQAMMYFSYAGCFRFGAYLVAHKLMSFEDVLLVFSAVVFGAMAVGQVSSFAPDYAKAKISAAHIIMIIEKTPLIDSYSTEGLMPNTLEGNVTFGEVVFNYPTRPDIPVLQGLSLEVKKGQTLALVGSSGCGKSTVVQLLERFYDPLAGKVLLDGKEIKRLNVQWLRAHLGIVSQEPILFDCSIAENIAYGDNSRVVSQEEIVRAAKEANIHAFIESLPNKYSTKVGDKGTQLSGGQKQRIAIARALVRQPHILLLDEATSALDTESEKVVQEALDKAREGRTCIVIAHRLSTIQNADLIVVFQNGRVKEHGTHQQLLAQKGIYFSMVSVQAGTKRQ
- Assay Remarks: MDR1 (ABCB1) efflux transporter inhibition, cell-based (AID 377)
- Condition Notes: MDR1-expressing cells, fluorescent substrate accumulation slope; concentration not given here
Results filed as inconclusive are left out. Active and inactive are the calls of the source. No stated cut-off is given here; in the data, active means fluorescence slope change above about 50%; inconclusive means mostly about 31% to 49%; inactive means weaker than that.
Outcomes: Yes (active), No (inactive)

{"columns": ["Compound", "Class Label"],
 "data": [
  ["CC[C@H](C)[C@H]1O[C@]2(C=C[C@@H]1C)C[C@@H]1C[C@@H](C/C=C(\\C)C(O[C@H]3C[C@H](OC)C(O[C@H]4C[C@H](OC)[C@@H](O)[C@H](C)O4)[C@H](C)O3)[C@@H](C)/C=C/C=C3\\CO[C@@H]4[C@H](O)C(C)=C[C@@H](C(=O)O1)[C@]34O)O2 (some centres undefined)", "Yes"],
  ["COc1ccc2c(c1O)-c1c(OC)c(OC)cc3c1[C@H](C2)N(C)CC3", "No"],
  ["C[C@@H]1NCCc2cc(O)c(O)cc21", "No"],
  ["CN1Cc2c(ccc3c2OCO3)[C@@H]2[C@H]1c1cc3c(cc1C[C@@H]2O)OCO3", "Yes"],
  ["NC(=O)CN1CCCC1=O", "Yes"],
  ["CN1C[C@H](CO)C=C2c3cccc4[nH]cc(c34)C[C@H]21", "Yes"],
  ["CN1CCc2cc3c(cc2[C@H]1[C@@H]1OC(=O)c2c1ccc1c2OCO1)OCO3", "No"],
  ["C#CCN(C)[C@H](C)Cc1ccccc1", "No"],
  ["CNCC(O)c1ccc(O)c(OC)c1 (centres undefined)", "Yes"],
  ["COc1cc2c(cc1O)C[C@H]1c3c(cc(O)c(OC)c3-2)CCN1C", "No"],
  ["CCC1(CC)C(=O)C=CNC1=O", "Yes"],
  ["c1cncc(C2=NCCC2)c1", "No"],
  ["CN(C)C(=O)Oc1cc(OC(=O)N(C)C)cc(C(O)CNC(C)(C)C)c1 (centres undefined)", "No"],
  ["O=[N+]([O-])O[C@H]1CO[C@H]2[C@@H]1OC[C@H]2O[N+](=O)[O-]", "No"],
  ["CC[C@@H]1C(=O)OC[C@@H]1Cc1cncn1C", "Yes"],
  ["C[C@H](N)[C@@H](O)c1ccc(O)c(O)c1", "No"],
  ["CCC1C2CC3[C@@H]4N(C)c5ccccc5[C@]45CC(C2[C@H]5O)N3[C@@H]1O (some centres undefined)", "Yes"],
  ["COc1cc2c(cc1O)C1Cc3ccc(OC)c(O)c3CN1CC2 (centres undefined)", "Yes"],
  ["C=C(C(=O)OC1CC2[C@@H]3O[C@@H]3[C@@H](C1)N2C)c1ccccc1 (some centres undefined)", "No"],
  ["CN1CCC2=C[C@@H](O)C3OC(=O)c4cc5c(cc4C3[C@H]21)OCO5 (some centres undefined)", "No"],
  ["CCCC(C)(COC(N)=O)COC(=O)NC(C)C (centres undefined)", "Yes"],
  ["O=C1OCCN1N=Cc1ccc([N+](=O)[O-])o1", "Yes"],
  ["Clc1ccc(CSC(Cn2ccnc2)c2ccc(Cl)cc2Cl)cc1 (centres undefined)", "No"],
  ["C[CH2][Hg][S]c1ccccc1C(=O)O", "No"]
]}

====

- Assay Remarks: differential killing of epithelial or mesenchymal cells, primary screen, imaging, PC-3E GFP, TEM4-18 mCherry, co-culture (AID 1345086);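 further: cells exposed to compound for 72 h before imaging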
- Condition Notes: imaging cell counts, measured here: mesenchymal TEM4-18 mCherry cell survival, at 1 µM
Quantity: normalised cell number

{"columns": ["Mol", "Test Value"],
 "data": [
  ["CC1=NCCc2c1[nH]c1cc(O)ccc21", 0.99],
  ["COc1cc2c(cc1OC)[C@@H]1C(=O)c3ccc4oc(C(C)C)cc4c3O[C@@H]1CO2", 0.98],
  ["NCCc1c[nH]c2ccccc12", 0.92],
  ["N[C@H](CO)Cc1ccccc1", 1.17],
  ["C=C(C)c1cc2cc(C(C)=O)c(O)cc2o1", 0.92]
]}
